Where do the numbers come from? From the supplement of paper PMC9112550.

System: Escherichia coli TOP10;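 also: peptides expressed intracellularly from a pBAD plasmid library in pooled LB shake-flask culture, induced with 0.3% L-arabinose, DNA abundance read by NGS, three biological replicates, DESeq2 with apeglm shrinkage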
Assay: shrunken log2 fold change of peptide-encoding DNA abundance (4.5 h post-induction vs induction); higher = less antimicrobial activity (less host growth inhibition)
Conditions: time post-induction: 4.5 h; library: site-saturation at positions 5, 18, 19, 20
REPORTED PROPERTY: shrunken log2 fold change
Write the value as a bare number.

Entry "RRIRKRPPRLPRPRPRPSPIPRP" : reported shrunken log2 fold change = ?
0.0333

Entry "RRIRIRPPRLPRPRPRPGTQPRP" : reported shrunken log2 fold change = ?
-0.0235

Entry "RRIRHRPPRLPRPRPRPKTSPRP" : reported shrunken log2 fold change = ?
-0.0692

Entry "RRIRLRPPRLPRPRPRPVKSPRP" : reported shrunken log2 fold change = ?
-0.075

Entry "RRIRVRPPRLPRPRPRPGREPRP" : reported shrunken log2 fold change = ?
-0.00937

Entry "RRIRTRPPRLPRPRPRPNDWPRP" : reported shrunken log2 fold change = ?
-0.385

Entry "RRIRIRPPRLPRPRPRPDDLPRP" : reported shrunken log2 fold change = ?
0.118

Entry "RRIRVRPPRLPRPRPRPYSAPRP" : reported shrunken log2 fold change = ?
-0.805

Entry "RRIRIRPPRLPRPRPRPTGFPRP" : reported shrunken log2 fold change = ?
-0.0748

Entry "RRIRWRPPRLPRPRPRPTAVPRP" : reported shrunken log2 fold change = ?
0.415

Entry "RRIRCRPPRLPRPRPRPWCNPRP" : reported shrunken log2 fold change = ?
-0.412

Entry "RRIRWRPPRLPRPRPRPNETPRP" : reported shrunken log2 fold change = ?
0.0101

Entry "RRIRHRPPRLPRPRPRPGTSPRP" : reported shrunken log2 fold change = ?
-0.0565

Entry "RRIRGRPPRLPRPRPRPYCRPRP" : reported shrunken log2 fold change = ?
-0.237

Entry "RRIRFRPPRLPRPRPRPSLNPRP" : reported shrunken log2 fold change = ?
-0.642

Entry "RRIRMRPPRLPRPRPRPETDPRP" : reported shrunken log2 fold change = ?
1.77

Entry "RRIRYRPPRLPRPRPRPHGAPRP" : reported shrunken log2 fold change = ?
-0.0794

Entry "RRIRYRPPRLPRPRPRPHQPPRP" : reported shrunken log2 fold change = ?
-0.748

Entry "RRIRKRPPRLPRPRPRPQSQPRP" : reported shrunken log2 fold change = ?
0.249

Entry "RRIRDRPPRLPRPRPRPECGPRP" : reported shrunken log2 fold change = ?
1.71

Entry "RRIRYRPPRLPRPRPRPQCKPRP" : reported shrunken log2 fold change = ?
-1.34

Entry "RRIRFRPPRLPRPRPRPWVSPRP" : reported shrunken log2 fold change = ?
-0.272

Entry "RRIRQRPPRLPRPRPRPLFLPRP" : reported shrunken log2 fold change = ?
-0.65

Entry "RRIRPRPPRLPRPRPRPTRYPRP" : reported shrunken log2 fold change = ?
0.23

Entry "RRIRLRPPRLPRPRPRPWQTPRP" : reported shrunken log2 fold change = ?
-0.0245

Entry "RRIRNRPPRLPRPRPRPPGAPRP" : reported shrunken log2 fold change = ?
0.665

Entry "RRIRMRPPRLPRPRPRPWDWPRP" : reported shrunken log2 fold change = ?
0.794

Entry "RRIRERPPRLPRPRPRPQLHPRP" : reported shrunken log2 fold change = ?
-0.216

Entry "RRIRWRPPRLPRPRPRPPHHPRP" : reported shrunken log2 fold change = ?
0.214

Entry "RRIRIRPPRLPRPRPRPHIIPRP" : reported shrunken log2 fold change = ?
-0.614
